What Efficacy was measured for each of the following?
- ASSAY SYSTEM: Glucocorticoid receptor (Homo sapiens)
- ASSAY PROCEDURE: Agonist activity at glucocorticoid receptor in human A549 cells assessed as inhibition of PMA-induced AP-1 activation by luciferase reporter gene assay relative to dexamethasone
- Type: cell-based
Quick reminder: number only, in %, skip the unit.

What Efficacy appears in the records for this compound with Glucocorticoid receptor (Homo sapiens)? CC(C)(C(=O)Nc1nncs1)C(c1ccccc1)c1ccc2c(cnn2-c2ccccc2)c1 (racemic)
73

What Efficacy appears in the records for this compound with Glucocorticoid receptor (Homo sapiens)? CC(C)(C(=O)Nc1nncs1)C(c1ccccc1)c1ccc2c(cnn2-c2ccncc2)c1 (racemic)
56

What Efficacy appears in the records for this compound with Glucocorticoid receptor (Homo sapiens)? CC(C)(C(=O)Nc1nccs1)[C@H](c1ccccc1)c1ccc2c(cnn2-c2ccc(F)cc2)c1
56

What Efficacy appears in the records for this compound with Glucocorticoid receptor (Homo sapiens)? CC(C)(C(=O)Nc1nncs1)[C@@H](c1ccccc1)c1ccc2[nH]ncc2c1
79

What Efficacy appears in the records for this compound with Glucocorticoid receptor (Homo sapiens)? CC(C)Cn1ncc2cc(C(c3ccccc3)C(C)(C)C(=O)Nc3nncs3)ccc21 (racemic)
76
